The values you see were collected from patent US20230322958A1.

study_system: T1, huNotch2-EGF6-10 (human, UniProt Q04721 219-418)
T1 construct: also called human Notch2 EGF6-10
T1 sequence: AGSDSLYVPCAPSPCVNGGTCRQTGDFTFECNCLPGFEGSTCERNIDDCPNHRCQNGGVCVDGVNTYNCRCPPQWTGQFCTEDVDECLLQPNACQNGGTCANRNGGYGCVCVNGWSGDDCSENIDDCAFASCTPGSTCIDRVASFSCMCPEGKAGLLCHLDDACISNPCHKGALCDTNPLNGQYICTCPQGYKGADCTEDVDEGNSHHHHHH
test_method_notes: SPR BIAcore, separate experiment, substantially as for Table 4

>  <binder>
hu.3107.L6H12 (antibody, V domains shown, also called hu.Notch-3107.L6H12) VH: EVQLVQSGAEVKKPGASVKVSCKASGYTFSNYVIHWVRQAPGQGPEWTGYIIPGSGGTKFNEKFKGRATSTVDTSSTTAYMELSRLRSDDTVVYYCARDGAGSFTYWGQGTLVTVSS VL: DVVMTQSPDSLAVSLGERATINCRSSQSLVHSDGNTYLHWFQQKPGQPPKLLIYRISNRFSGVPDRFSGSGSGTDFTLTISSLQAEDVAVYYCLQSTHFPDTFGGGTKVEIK

>  <unit_abbreviation>
M⁻¹ s⁻¹

>  <kon>
413000

$$$$
>  <binder>
hu.3107.L7H15 (antibody, V domains shown, also called hu.Notch-3107.L7H15) VH: EVQLVQSGAEVKKPGESLKISCKGSGYTFSNYVIHWVRQMPGKGPEWTGYIIPGSGGTKFNEKFKGQATISVDKSITTAYLQWSSLKASDTAMYYCARDGAGSFTYWGQGTLVTVSS VL: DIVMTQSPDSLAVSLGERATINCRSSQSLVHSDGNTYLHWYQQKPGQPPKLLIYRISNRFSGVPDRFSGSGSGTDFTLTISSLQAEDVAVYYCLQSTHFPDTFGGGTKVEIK

>  <unit_abbreviation>
M⁻¹ s⁻¹

>  <kon>
350000

$$$$
>  <binder>
hu.3107.L1H12 (antibody, V domains shown, also called hu.Notch-3107.L1H12) VH: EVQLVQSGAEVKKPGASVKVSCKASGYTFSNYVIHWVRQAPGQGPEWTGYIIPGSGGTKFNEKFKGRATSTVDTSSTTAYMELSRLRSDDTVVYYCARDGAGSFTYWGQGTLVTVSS VL: DVVMTQSPLSLPVTLGQPASISCRSSQSLVHSDGNTYLHWFQQRPGQSPRLLIYRISNRFSGVPDRFSGSGSGTDFTLKISRVEAEDVGVYYCLQSTHFPDTFGGGTKVEIK

>  <unit_abbreviation>
M⁻¹ s⁻¹

>  <kon>
380000

$$$$
